assay_procedure: total protein half-life in vivo (active degradation + dilution); higher = more stable protein
measurement_conditions: wild type E. coli NCM3722; growth: P-lim chemostat; doubling time 6 h
Given measured total protein half-life in vivo, output 1 (yes) if it is greater than or equal to 5 h and 0 (no) if not.

Here's what some known entries look like.
• MQKFDTRTFQGLILTLQDYWARQGCTIVQPLDMEVGAGTSHPMTCLRELGPEPMAAAYVQPSRRPTDGRYGENPNRLQHYYQFQVVIKPSPDNIQELYLGSLKELGMDPTIHDIRFVEDNWENPTLGAWGLGWEVWLNGMEVTQFTYFQQVGGLECKPVTGEITYGLERLAMYIQGVDSVYDLVWSDGPLGKTTYGDVFHQNEVEQSTYNFEYADVDFLFTCFEQYEKEAQQLLALENPLPLPAYERILKAAHSFNLLDARKAISVTERQRYILRIRTLTKAVAEAYYASREALGFPMCNKDK = 1 (yes)
• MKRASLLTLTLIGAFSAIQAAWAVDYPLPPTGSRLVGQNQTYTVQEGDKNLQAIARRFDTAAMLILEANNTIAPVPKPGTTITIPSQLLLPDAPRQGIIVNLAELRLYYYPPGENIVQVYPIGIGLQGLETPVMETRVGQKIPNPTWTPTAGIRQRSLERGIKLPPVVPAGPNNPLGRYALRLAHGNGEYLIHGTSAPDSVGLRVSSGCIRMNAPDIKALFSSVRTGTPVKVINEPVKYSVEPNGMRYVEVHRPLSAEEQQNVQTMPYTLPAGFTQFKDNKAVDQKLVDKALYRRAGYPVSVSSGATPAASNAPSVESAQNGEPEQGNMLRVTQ = 1 (yes)
• MSETASWQPSASIPNLLKRAAIMAEIRRFFADRGVLEVETPCMSQATVTDIHLVPFETRFVGPGHSQGMNLWLMTSPEYHMKRLLVAGCGPVFQLCRSFRNEEMGRYHNPEFTMLEWYRPHYDMYRLMNEVDDLLQQVLDCPAAESLSYQQAFLRYLEIDPLSADKTQLREVAAKLDLSNVADTEEDRDTLLQLLFTFGVEPNIGKEKPTFVYHFPASQASLAQISTEDHRVAERFEVYYKGIELANGFHELTDAREQQQRFEQDNRKRAARGLPQHPIDQNLIEALKVGMPDCSGVALGVDRLVMLALGAETLAEVIAFSVDRA [P0A8N7] = 1 (yes)
• MKATSEELAIFVSVVESGSFSRAAEQLGQANSAVSRAVKKLEMKLGVSLLNRTTRQLSLTEEGERYFRRVQSILQEMAAAESEIMETRNTPRGLLRIDAATPVVLHFLMPLIKPFRERYPEVTLSLVSSETIINLIERKVDVAIRAGTLTDSSLRARPLFNSYRKIIASPDYISRYGKPETIDDLKQHICLGFTEPASLNTWPIARSDGQLHEVKYGLSSNSGETLKQLCLSGNGIACLSDYMIDKEIARGELVELMADKVLPVEMPFSAVYYSDRAVSTRIRAFIDFLSEHVKTAPGGAVREA = 1 (yes)
• MPLHNLTRFPRLEFIGAPTPLEYLPRFSDYLGREIFIKRDDVTPMAMGGNKLRKLEFLAADALREGADTLITAGAIQSNHVRQTAAVAAKLGLHCVALLENPIGTTAENYLTNGNRLLLDLFNTQIEMCDALTDPNAQLEELATRVEAQGFRPYVIPVGGSNALGALGYVESALEIAQQCEGAVNISSVVVASGSAGTHAGLAVGLEHLMPESELIGVTVSRSVADQLPKVVNLQQAIAKELELTASAEILLWDDYFAPGYGVPNDEGMEAVKLLARLEGILLDPVYTGKAMAGLIDGISQKRFKDEGPILFIHTGGAPALFAYHPHV = 1 (yes)
• MLDQVCQLARNAGDAIMQVYDGTKPMDVVSKADNSPVTAADIAAHTVIMDGLRTLTPDVPVLSEEDPPGWEVRQHWQRYWLVDPLDGTKEFIKRNGEFTVNIALIDHGKPILGVVYAPVMNVMYSAAEGKAWKEECGVRKQIQVRDARPPLVVISRSHADAELKEYLQQLGEHQTTSIGSSLKFCLVAEGQAQLYPRFGPTNIWDTAAGHAVAAAAGAHVHDWQGKPLDYTPRESFLNPGFRVSIY = 1 (yes)
• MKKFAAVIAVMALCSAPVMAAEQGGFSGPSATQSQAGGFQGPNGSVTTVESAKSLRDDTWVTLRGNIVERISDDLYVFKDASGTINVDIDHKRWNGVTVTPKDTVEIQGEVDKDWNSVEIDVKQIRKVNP [P0ADU5] = 0 (no)
• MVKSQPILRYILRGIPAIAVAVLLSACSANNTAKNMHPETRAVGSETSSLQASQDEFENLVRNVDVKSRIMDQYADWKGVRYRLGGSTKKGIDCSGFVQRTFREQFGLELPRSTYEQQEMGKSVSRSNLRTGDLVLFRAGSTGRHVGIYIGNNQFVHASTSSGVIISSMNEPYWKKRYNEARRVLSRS [P0AFV4] = 0 (no)
• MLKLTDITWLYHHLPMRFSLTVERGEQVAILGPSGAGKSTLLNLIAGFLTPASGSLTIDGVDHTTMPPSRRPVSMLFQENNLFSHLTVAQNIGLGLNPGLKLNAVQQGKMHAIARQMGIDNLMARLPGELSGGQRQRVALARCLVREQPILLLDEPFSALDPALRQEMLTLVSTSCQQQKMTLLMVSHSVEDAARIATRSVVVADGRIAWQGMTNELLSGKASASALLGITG = 1 (yes)
• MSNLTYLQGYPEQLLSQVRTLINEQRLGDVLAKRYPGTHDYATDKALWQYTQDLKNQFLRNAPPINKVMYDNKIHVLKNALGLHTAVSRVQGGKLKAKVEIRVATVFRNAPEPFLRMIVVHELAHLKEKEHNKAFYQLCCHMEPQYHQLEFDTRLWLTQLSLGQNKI = 0 (no)

Now turn to the next sequence.
Ask: # bool: total protein half-life in vivo of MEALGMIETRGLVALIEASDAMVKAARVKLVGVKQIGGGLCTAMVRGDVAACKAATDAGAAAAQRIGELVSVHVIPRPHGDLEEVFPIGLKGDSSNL [P0ABF4] >= 5 h
Reply: 1 (yes)
